Molecular target: CDK2 (Homo sapiens, UniProt P24941)
Construct: HEK293 clonal lines with CRISPR KI HiBiT tag on CDK2 proteins; host or cells: HEK293 clonal line, CRISPR knock-in HiBiT-CDK2, stably expressing LgBiT
Experiment: HiBiT assay (CDK2 degradation)
Type: cell-based
Details: HEK293 clonal line with CRISPR KI HiBiT tag on CDK2, 24 hours, HiBiT Lysis Reagent
Reported Endpoint: Dmax

O=C1CCC(N2Cc3ccc(CNC(=O)OCC4CC45CCC(F)(F)CC5)cc3C2=O)C(=O)N1 (stereo not drawn) :: 10 to 50%
CC(C)(CCOC(=O)NCc1ccc2c(c1)C(=O)N(C1CCC(=O)NC1=O)C2)C1CC1 (stereo not drawn) :: 50 to 80%
O=C1CCC(N2Cc3ccc(CNC(=O)OC4CC5(CCCCC5)C4)cc3C2=O)C(=O)N1 (stereo not drawn) :: 50 to 80%
O=C1CCC(N2Cc3ccc(CNC(=O)O[C@@H]4C[C@H]5CC[C@@H]4O5)cc3C2=O)C(=O)N1 (mixture of isomers) :: ≤ 10%
CC1(C)CCC1OC(=O)NCc1ccc2c(c1)C(=O)N(C1CCC(=O)NC1=O)C2 (stereo not drawn) :: 10 to 50%

Query string: // fetch Dmax given entry O=C1CCC(N2Cc3ccc(CNC(=O)OC4CC5(CCOCC5)C4)cc3C2=O)C(=O)N1 (stereo not drawn)
Result string: 10 to 50%

---

Target: CDK2 (Homo sapiens)
Construct: HEK293 clonal lines with CRISPR KI HiBiT tag on CDK2 proteins; host or cells: HEK293 clonal line, CRISPR knock-in HiBiT-CDK2, stably expressing LgBiT
Assay: HiBiT assay (CDK2 degradation)
Assay type: cell-based
Details: HEK293 clonal line with CRISPR KI HiBiT tag on CDK2, 24 hours, HiBiT Lysis Reagent
Reported Endpoint: Dmax

Worked set:
O=C1CCC(N2Cc3ccc(CNC(=O)OCC4CCC(F)(F)CC4)cc3C2=O)C(=O)N1 (stereo not shown) [Compound 88] :: 10 to 50%
O=C1CCC(N2Cc3ccc(CNC(=O)O[C@@H]4CCC[C@H]4c4ccccc4)cc3C2=O)C(=O)N1 (mixture of isomers) [Compound 26] :: 10 to 50%
CO[C@H]1C[C@@H](OC(=O)NCc2ccc3c(c2)C(=O)N(C2CCC(=O)NC2=O)C3)C1 (stereo partly shown) [Compound 23] :: ≤ 10%
CC1(C)CCC(OC(=O)NCc2ccc3c(c2)CN(C2CCC(=O)NC2=O)C3=O)CC1 (stereo not shown) [Compound 15] :: 50 to 80%

Query string: Identify measured Dmax obtained with CDK2 (Homo sapiens) for CN1CCC(COC(=O)NCc2ccc3c(c2)C(=O)N(C2CCC(=O)NC2=O)C3)CC1 (stereo not shown) [Compound 34] .
Result string: ≤ 10%

---

Biological target: CDK2 (Homo sapiens, UniProt P24941)
Construct: HEK293 clonal lines with CRISPR KI HiBiT tag on CDK2 proteins; host or cells: HEK293 clonal line, CRISPR knock-in HiBiT-CDK2, stably expressing LgBiT
Assay: NanoBiT assay (CDK2 degradation)
Assay type: cell-based
Conditions: HEK293, HEK293 clonal line with CRISPR KI HiBiT tag on CDK2, Endurazine live cell substrate, 24 hours
Reported Endpoint: Dmax

Some solved entries appear below for comparison.
O=C1CCC(N2Cc3ccc(CNC(=O)OCC4CSC4)cc3C2=O)C(=O)N1 (stereo not shown) :: 10 to 50%
O=C1CCC(N2Cc3ccc(CNC(=O)OCC4CC5(CC5)C4)cc3C2=O)C(=O)N1 (stereo not shown) :: 10 to 50%
CC1(COC(=O)NCc2ccc3c(c2)C(=O)N(C2CCC(=O)NC2=O)C3)CS(=O)(=O)C1 (stereo not shown) :: 10 to 50%
C[C@@H]1CCOC1COC(=O)NCc1ccc2c(c1)C(=O)N(C1CCC(=O)NC1=O)C2 (mixture of isomers) :: ≤ 10%
O=C1CCC(N2Cc3ccc(CNc4nnc(C5CCCCC5)o4)cc3C2=O)C(=O)N1 (stereo not shown) :: 10 to 50%

Query string: Provide measured Dmax value, entry: O=C1CCC(N2Cc3c(cc(CNc4nnc(C5CC6(CCC6)C5)o4)cc3C(F)F)C2=O)C(=O)N1 (stereo not shown)
Result string: 10 to 50%

Query string: Tell me its Dmax given CC1(COC(=O)NCc2ccc3c(c2)C(=O)N(C2CCC(=O)NC2=O)C3)CCCCC1 (stereo not shown) as the entry.
Result string: 10 to 50%

Query string: Quote Dmax reported for O=C1CCC(N2Cc3ccc(CNC(=O)OC[C@H]4[C@@H]5COC[C@@H]54)cc3C2=O)C(=O)N1 (stereo partly shown) please.
Result string: ≤ 10%

Query string: Entry CS(=O)(=O)N1CC(COC(=O)NCc2ccc3c(c2)C(=O)N(C2CCC(=O)NC2=O)C3)C1 (stereo not shown) needs its Dmax filled in; supply it.
Result string: ≤ 10%

---

Target: CDK2 (Homo sapiens, UniProt P24941)
Construct: HEK293 clonal lines with CRISPR KI HiBiT tag on CDK2 proteins; host or cells: HEK293 clonal line, CRISPR knock-in HiBiT-CDK2, stably expressing LgBiT
Assay: NanoBiT assay (CDK2 degradation)
Format: cell-based
Conditions: HEK293, HEK293 clonal line with CRISPR KI HiBiT tag on CDK2, Endurazine live cell substrate, 24 hours
Reported Endpoint: Dmax

O=C1CCC(N2C(=O)c3ccc(CNC(=O)OCC4CC5(CCC5)C4)cc3C2=O)C(=O)N1 (centres unmarked) :: > 80%

Now look at this entry.
Query string: Read off the recorded Dmax for O=C1CCC(N2Cc3ccc(C4(NC(=O)OCC5CC6(CCC6)C5)CC4)cc3C2=O)C(=O)N1 (centres unmarked)
Result string: 50 to 80%

---

Target: CDK2 (Homo sapiens)
Construct: HEK293 clonal lines with CRISPR KI HiBiT tag on CDK2 proteins; host or cells: HEK293 clonal line, CRISPR knock-in HiBiT-CDK2, stably expressing LgBiT
Test: NanoBiT assay (CDK2 degradation)
Type: cell-based
Details: HEK293, HEK293 clonal line with CRISPR KI HiBiT tag on CDK2, Endurazine live cell substrate, 24 hours
Overview of reported Dmax across a group of molecules:

Look over these answered cases.
O=C1CCC(N2Cc3c(Cl)cc(CNC(=O)OCC4CC5(CCC5)C4)cc3C2=O)C(=O)N1 (stereo not shown) :: 50 to 80%
CC1(C)OC[C@@H](COC(=O)NCc2ccc3c(c2)C(=O)N(C2CCC(=O)NC2=O)C3)O1 (stereo partly shown) :: ≤ 10%
O=C1CCC(N2Cc3ccc(CNC(=O)OCC4CCCS4(=O)=O)cc3C2=O)C(=O)N1 (stereo not shown) :: ≤ 10%

Now examine the next entry.
Query string: Provide CDK2 (Homo sapiens) Dmax reading for O=C1CCC(N2Cc3ccc(CNC(=O)OCC4CC5(C4)CC4(CCC4)C5)cc3C2=O)C(=O)N1 (stereo not shown) .
Result string: 50 to 80%

---

Measured Dmax of individual entries
Biological target: CDK2 (Homo sapiens, UniProt P24941)
Construct: HEK293 clonal lines with CRISPR KI HiBiT tag on CDK2 proteins; host or cells: HEK293 clonal line, CRISPR knock-in HiBiT-CDK2, stably expressing LgBiT
Test: NanoBiT assay (CDK2 degradation)
Format: cell-based
Conditions: HEK293, HEK293 clonal line with CRISPR KI HiBiT tag on CDK2, Endurazine live cell substrate, 24 hours

# example entries with known answers
CC(C)(C)C12CC(COC(=O)NCc3ccc4c(c3)C(=O)N(C3CCC(=O)NC3=O)C4)(C1)C2 (stereo not shown) :: 10 to 50%
CC1(CCCCOC(=O)NCc2ccc3c(c2)C(=O)N(C2CCC(=O)NC2=O)C3)CC1 (stereo not shown) :: 10 to 50%
CN(C)C(=O)N1CC(OC(=O)NCc2ccc3c(c2)C(=O)N(C2CCC(=O)NC2=O)C3)C1 (stereo not shown) :: 10 to 50%
CC(COC(=O)NCc1ccc2c(c1)C(=O)N(C1CCC(=O)NC1=O)C2)C1CCC1 (stereo not shown) :: ≤ 10%
COc1c(CNC(=O)OCC2CC3(CCC3)C2)ccc2c1C(=O)N(C1CCC(=O)NC1=O)C2 (stereo not shown) :: 10 to 50%
O=C1CCC(N2Cc3c(Br)cc(CNc4nnc(C5CC6(CCC6)C5)o4)cc3C2=O)C(=O)N1 (stereo not shown) :: 50 to 80%
O=C1CCC(N2Cc3ccc(CNC(=O)OC(Cc4ccccc4)C4CC5(CCC5)C4)cc3C2=O)C(=O)N1 (stereo not shown) :: 10 to 50%
C[C@@H](OC(=O)NCc1ccc2c(c1)C(=O)N(C1CCC(=O)NC1=O)C2)C1CC12CC2 (stereo partly shown) :: ≤ 10%

# next compound below
Query string: Return Dmax (reported value) for this compound: CCC1(COC(=O)NCc2ccc3c(c2)C(=O)N(C2CCC(=O)NC2=O)C3)COC1 (stereo not shown)
Result string: 10 to 50%
